Molecular target: T1, hIL-3 receptor (human, UniProt P26951)
T1 sequence: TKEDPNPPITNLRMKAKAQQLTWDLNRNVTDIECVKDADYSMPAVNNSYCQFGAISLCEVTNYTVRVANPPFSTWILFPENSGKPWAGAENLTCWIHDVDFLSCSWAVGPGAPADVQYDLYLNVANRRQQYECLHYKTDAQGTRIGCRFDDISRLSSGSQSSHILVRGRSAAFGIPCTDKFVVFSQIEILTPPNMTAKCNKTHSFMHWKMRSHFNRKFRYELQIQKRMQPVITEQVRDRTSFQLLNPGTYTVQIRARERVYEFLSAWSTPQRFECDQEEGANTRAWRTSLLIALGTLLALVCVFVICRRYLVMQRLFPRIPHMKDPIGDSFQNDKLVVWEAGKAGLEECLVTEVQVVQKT
Assay: cell-based or functional assay
measurement.kind: Relative Biological Activity (AML 193 proliferation)

{"binder": "pMON13393 polypeptide (ligand) MANCSIMIDEAIHHLKRPPAPSLDPNNLNDEDMSILMERNLRLPNLESFVRAVKNLENASGIEAILRNLQPCLPSATAAPSRHPIIIKAGDWQEFREKLTFYLVTLEQAQEQQ", "observed.value": "32 EC50 (1-133)hIL-3 / EC50 mutant"}
{"binder": "pMON13381 polypeptide (ligand) MANCSIMIDEIIHHLKRPPAPLLDPNNLNAEDVDILMERNLRLPNLESFVRAVKNLENASGIEAILRNLWPCLPSATAAPSRHPIIIKAGDWQEFREKLTFYLVTLEQAQEQQ", "observed.value": "10 EC50 (1-133)hIL-3 / EC50 mutant"}
{"binder": "pMON13446 polypeptide (ligand) MAYPETDYKDDDDKNCSIMIDEIIHHLKRPPAPLLDPNNLNAEDVDILMERNLRLPNLESFVRAVKNLENASGIEAILRNLQPCLPSATAAPSRHPIIIKAGDWQEFREKLTFYLVTLEQAQEQQ", "observed.value": "21.5 EC50 (1-133)hIL-3 / EC50 mutant"}
{"binder": "pMON13364 polypeptide (ligand) NCSIMIDEIIHHLKRPPNPLLDPNNLNSEDMDILMERNLRTPNLLAFVRAVKHLENASAIESILKNLLPCLPLATAAPTRHPIHIKDGDWNEFRRKLTFYLKTLENAQAQQ", "observed.value": "13 EC50 (1-133)hIL-3 / EC50 mutant"}
{"binder": "pMON13366 polypeptide (ligand) MANCSIMIDEIIHHLKRPPAPLLDPNNLNNEDVSILMDRNLRLPNLESFVRAVKNLENASGIEAILRNLQPCLPSATAAPSRHPIIIKAGDWQEFREKLTFYLVTLEQAQEQQ", "observed.value": "38 EC50 (1-133)hIL-3 / EC50 mutant"}
{"binder": "pMON13397 polypeptide (ligand) MANCSIMIDEIIHHLKRPPAPLLDPNNLNAEDVDILMERNLRLPNLESFVRAVKNLENASGIEAILRNLWPCLPSATAAPSRHPIIIRMGDWQEFREKLTFYLVTLEQAQEQQ", "observed.value": "16 EC50 (1-133)hIL-3 / EC50 mutant"}
{"binder": "pMON13428 polypeptide (ligand) MANCSIMIDEIIHHLKRPPNPLLDPNNLNSEDMDILMERNLRTPNLLAFVRAVKHLENASGIEPILSNLQPCVPYWTAPPSRTPITIKAGDWQEFRLKLQFYLSTLEQAQEQQ", "observed.value": "0.008 EC50 (1-133)hIL-3 / EC50 mutant"}
{"binder": "pMON13406 polypeptide (ligand) MANCSIAIDEIIHHLKRPPNPLLDPNNLNSEDMDILMERNLRTPNLLAFVRAVKHLENASGIEAILRNLQPCLPSATAAPSRHPIIIKAGDWQEFREKLTFYLVTLEQAQEQQ", "observed.value": "5 EC50 (1-133)hIL-3 / EC50 mutant"}
